- System: EBNA-1 (Epstein-Barr virus nuclear antigen 1), Human herpesvirus 4
- Test Summary: EBNA-1 DNA-binding inhibitors, primary screen, biochemical, fluorescence polarization (AID 1950)
- Setup Conditions: at 14.8 µM
Among all 300,000 compounds or so, about 1,000 (0.33%) were called active. No stated cut-off is given here; in the data, active means inhibition above about 28%; inactive means the rest. Many of the other results were omitted from the sample, so actives are more common in it than they were.
Mark one answer only. Choices: t for active, f for inactive

As a guide, the following entries are already answered.
* COc1ccc(C)cc1NC(=O)NCc1ccccn1 | t
* N=c1n(Cc2ccc(Cl)cc2)c2ccccc2n1CC(O)c1ccco1 (stereo unspecified) | f
* O=C(Nc1ccccc1)OCc1cn(-c2ccc(Cl)cc2)nn1 | f
* CC/C(O)=C1\C(=O)CC(C)(C)CC1=NCCc1nc2ccccc2[nH]1 | f
* COc1cccc(N2CC(C(=O)Nc3c(C)cccc3C)CC2=O)c1 (stereo unspecified) | f

Okay, next one:
QUERY: Call for entry O=C(CCCn1c(SCC(=O)c2ccc(F)cc2)nc2ccccc2c1=O)NCc1ccco1 :
RESULT: t

###

- Test system: EBNA-1 (Epstein-Barr virus nuclear antigen 1), Human herpesvirus 4
- Test Summary: EBNA-1 DNA-binding inhibitors, primary screen, biochemical, fluorescence polarization (AID 1950)
- Setup Conditions: at 14.8 µM
The whole screen tested about 300,000 compounds, of which about 1,000 (0.33%) were called active. No stated cut-off is given here; in the data, active means inhibition above about 28%; inactive means the rest. Many of the other results were omitted from the sample, so actives are more common in it than they were.
Mark one answer only. Choices: active, inactive

As a guide, the following entries are already answered.
• O=C(CCC(=O)OCc1cccc(C(=O)Oc2ccccc2)c1)Nc1cccc2ccccc12 = inactive
• COc1ccc(C(C(=O)NC2CCCC2)N(CCCO)C(=O)Cn2nnc(-c3ccc(C)o3)n2)cc1 (centres undefined) = inactive
• COCCNc1cc(-c2ccccc2)nc2cc(-c3cccc(F)c3)nn12 = inactive
• COc1cccc(CNn2cn[nH]c2=S)c1OCc1ccccc1 = inactive
• Cc1cccc(NC(=O)NC2(C)CCS(=O)(=O)C2)c1 (centres undefined) = inactive

QUERY: Call for entry CCC(=O)Nc1ccc(S(=O)(=O)NCC2CCCO2)cc1 (centres undefined) :
RESULT: inactive

QUERY: Call for entry CCC(=O)Nc1ccc(C(=O)Nc2ccc3c(c2)C(=O)N(CC2CCCO2)C3=O)cc1 (centres undefined) :
RESULT: active

QUERY: Call for entry O=C(C1CCC1)N1CCc2cc(S(=O)(=O)NCc3cccnc3)ccc21 :
RESULT: inactive

QUERY: Call for entry COc1ccc(CCNC(=O)C2CCCN2C(=O)Nc2ccccc2)cc1OC (centres undefined) :
RESULT: inactive

###

- Tested on: EBNA-1 (Epstein-Barr virus nuclear antigen 1), Human herpesvirus 4
- Test Summary: EBNA-1 DNA-binding inhibitors, primary screen, biochemical, fluorescence polarization (AID 1950)
- Setup Conditions: at 14.8 µM
Screen size: about 300,000 compounds; about 1,000 (0.33%) were called active. No stated cut-off is given here; in the data, active means inhibition above about 28%; inactive means the rest. The sample holds actives, similar compounds and a random draw of the others, so the mix is not that of the screen.
Mark one answer only. Choices: active, inactive

As a guide, the following entries are already answered.
• CC(=O)Nc1ccc(S(=O)(=O)Nc2nccc(/C=C/c3ccccc3F)n2)cc1 = inactive
• CCc1ccc(C(=O)NN=C2CCCCCC2)s1 = inactive

QUERY: Call for entry CN(C)CCOc1cccc(Br)c1 :
RESULT: inactive

QUERY: Call for entry CCc1c(C)nc2ncnn2c1N1CCC(C(=O)NCc2ccc3c(c2)OCO3)CC1 :
RESULT: inactive

QUERY: Call for entry CCN(CC)CCN1C(=O)C2C(C(=O)Nc3ccc(Br)cc3)C3C=CC2(O3)C1C(=O)NC1CCCCC1 (stereo not given) :
RESULT: inactive

QUERY: Call for entry CC(=O)Nc1ccc(NC(=S)NC(=O)c2ccc([N+](=O)[O-])c(C)c2)cc1 :
RESULT: inactive

QUERY: Call for entry CSCCC(NS(=O)(=O)c1ccc2c(c1)oc(=O)n2C)C(=O)NCc1ccccc1 (stereo not given) :
RESULT: inactive
